All values here come from patent US8426459B2.

Assay: Solubility of individual components of flavanolignans in the mixture according to Example 1
Format: physicochemical
Conditions: purified water, water; read-out: Solubility of individual component in the mixture according to Example 1

| Substance Smiles | Unit String | solubility |
| --- | --- | --- |
| COc1cc([C@@H]2[C@H]3CO[C@@]4(O)C(=O)[C@@H]2C=C([C@H]2Oc5cc(O)cc(O)c5C(=O)[C@@H]2O)[C@@H]34)ccc1O | µg/mL | 215 |
